experimental-details: log P determination
Assay type: physicochemical
condition-description: pH 2.7
observable: logP

[[record]]
compound = "Cn1nnnc1C(=NO)c1ccccc1 [Example 1]"
observable = "logP"
recorded_measurement = 1.45

